Measurement Target: T1, mouse NKp46 (mouse, UniProt Q8C567 17-325)
T1 construct: whole, on cells
T1 sequence (looked up): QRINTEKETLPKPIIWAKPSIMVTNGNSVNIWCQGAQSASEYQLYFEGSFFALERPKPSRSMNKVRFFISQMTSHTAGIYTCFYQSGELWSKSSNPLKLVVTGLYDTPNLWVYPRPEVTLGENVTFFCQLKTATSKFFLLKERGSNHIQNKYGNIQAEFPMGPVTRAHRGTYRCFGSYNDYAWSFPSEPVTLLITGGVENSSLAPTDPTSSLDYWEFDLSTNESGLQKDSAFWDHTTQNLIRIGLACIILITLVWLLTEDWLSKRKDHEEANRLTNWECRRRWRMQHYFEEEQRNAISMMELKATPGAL
Protocol Summary: flow cytometry, HEK293F cells transfected with mouse NKp46
Readout Label: Bmax (MFI)
Respond with the bare value in MFI.

>>> measured("NKp46-hz5D7v13-Fc* (Fc fusion, VHH-Fc fusion with an IgG1 Fc lacking a hinge (Fc*)) EVQLVESGGGEVQPGGSLRLSCAASGRTFASAAMGWFRQAPGKEREFVAAISRSDDTYYAESVKGRFTISRDNAKNTVYLQMSSLRAEDTAVYYCAAVVPTYGNTIYVHSAAYNYWGQGTLVTVKPGGGGPSVFLFPPKPKDTLMISRTPEVTCVVVDVSHEDPEVKFNWYVDGVEVHNAKTKPREEQYNSTYRVVSVLTVLHQDWLNGKEYKCKVSNKALPAPIEKTISKAKGQPREPQVYTLPPSRDELTKNQVSLTCLVKGFYPSDIAVEWESNGQPENNYKTTPPVLDSDGSFFLYSKLTVDKSRWQQGNVFSCSVMHEALHNHYTQKSLSLSPG")
38100
>>> measured("NKp46-hz5D7v12-Fc* (Fc fusion, VHH-Fc fusion with an IgG1 Fc lacking a hinge (Fc*)) EVQLVESGGGEVQPGGSLRLSCAASGRTFASAAMGWFRQAPGKEREFVAAISRSDDTYYAESVKGRFTISRDNAKNTVYLQMSSLRAEDTAVYYCAAVVPTYGSNIYVHSAAYNYWGQGTLVTVKPGGGGPSVFLFPPKPKDTLMISRTPEVTCVVVDVSHEDPEVKFNWYVDGVEVHNAKTKPREEQYNSTYRVVSVLTVLHQDWLNGKEYKCKVSNKALPAPIEKTISKAKGQPREPQVYTLPPSRDELTKNQVSLTCLVKGFYPSDIAVEWESNGQPENNYKTTPPVLDSDGSFFLYSKLTVDKSRWQQGNVFSCSVMHEALHNHYTQKSLSLSPG")
49300

// below: Bmax (MFI) requested for another binder
// field: Bmax (MFI); key: NKp46-hz5D7v3-Fc* (Fc fusion, VHH-Fc fusion with an IgG1 Fc lacking a hinge (Fc*); also called NKp46-bz5D7v3-Fc*) EVQLVESGGGEVQPGGSLRLSCAASGRTFASAAMGWFRQAPGKEREFVAAISRSDDTYYAESVKGRFTISRDNAKNTVYLQMSSLRAEDTAVYYCAAVVPTYGNNIYVHSAAYNYWGQGTLVTVKPGGGGPSVFLFPPKPKDTLMISRTPEVTCVVVDVSHEDPEVKFNWYVDGVEVHNAKTKPREEQYNSTYRVVSVLTVLHQDWLNGKEYKCKVSNKALPAPIEKTISKAKGQPREPQVYTLPPSRDELTKNQVSLTCLVKGFYPSDIAVEWESNGQPENNYKTTPPVLDSDGSFFLYSKLTVDKSRWQQGNVFSCSVMHEALHNHYTQKSLSLSPG ; value = 56500
